Tested on: Nakaseomyces glabratus
assay info: Antifungal activity against Candida glabrata ATCC 2001 assessed as inhibition of fungal growth incubated for 24 to 48 hrs by CLSI protocol based broth microdilution method
Format: functional
conditions: time 24-48 hrs
endpoint: MIC (µM)
Provide the reading as a plain figure in µM.

chemical string: C/C(CCC(=O)O)=N\Nc1nc(-c2ccccc2)cs1
MIC, µM: 1.7

Please find the next compound below.
Query :: Consider the compound shown here: C[C@@H]1[C@H](O)[C@@H](C)/C=C/C=C/C=C/C=C/C=C/C=C/C=C/[C@H](O[C@@H]2O[C@H](C)[C@@H](O)[C@H](N)[C@@H]2O)C[C@@H]2O[C@](O)(C[C@@H](O)C[C@@H](O)[C@H](O)CC[C@@H](O)C[C@@H](O)CC(=O)O[C@H]1C)C[C@H](O)[C@H]2C(=O)O What is its recorded MIC?
Result :: 1.1
